TARGET_OF_ASSAY: thioredoxin reductase/thioredoxin (Homo sapiens, UniProt Q16881)
Sequence (Q16881 1-499 isoform Q16881-5): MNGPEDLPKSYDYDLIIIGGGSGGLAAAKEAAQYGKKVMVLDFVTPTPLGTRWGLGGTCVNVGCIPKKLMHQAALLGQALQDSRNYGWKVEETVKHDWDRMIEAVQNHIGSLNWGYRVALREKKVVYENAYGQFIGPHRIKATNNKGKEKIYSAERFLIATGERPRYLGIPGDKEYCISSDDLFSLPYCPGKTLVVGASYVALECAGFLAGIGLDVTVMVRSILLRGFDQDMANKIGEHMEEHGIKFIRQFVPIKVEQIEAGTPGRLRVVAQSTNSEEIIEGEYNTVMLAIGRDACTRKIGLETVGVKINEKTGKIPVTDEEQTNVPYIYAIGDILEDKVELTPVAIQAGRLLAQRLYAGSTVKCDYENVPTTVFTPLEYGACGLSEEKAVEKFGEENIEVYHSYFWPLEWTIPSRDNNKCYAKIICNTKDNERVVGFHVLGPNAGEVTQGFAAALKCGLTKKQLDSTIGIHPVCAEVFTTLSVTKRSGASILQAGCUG
EXPERIMENT_DESCRIPTION: thioredoxin reductase/thioredoxin-dependent insulin reduction assay
Format: biochemical
RUN_PARAMETERS: Table II; read-out: IC50TRTrx (μg/ml) (converted)
MEASUREMENT_TYPE: log10 of IC50 (log10 of the value in nM)
log10 IC50, nM

INSERT INTO assay_data (compound, measurement_type, assay_result) VALUES
  ('C=C(CN(C)C)C(=O)c1ccc(C)cc1C', 'log10 of IC50', 2.66),
  ('Cc1cc2c(c(O)c1-c1c(C)cc(O)c3c1C(=O)C=CC3=O)C(=O)C=CC2=O', 'log10 of IC50', 2.43),
  ('Cc1cccc2c1c1ccc3c(c1n2C)C(=O)C=CC3=O', 'log10 of IC50', 3.84),
  ('CC1COC2C3=C(C(=O)C=CC3=O)C3OC(=O)C4CCC5CC1CCC52C43 (centres unmarked)', 'log10 of IC50', 2.21),
  ('O=[N+]([O-])C(=C(Sc1ccccc1)Sc1ccccc1)C(Cl)=C(Cl)Cl', 'log10 of IC50', 2.38),
  ('CCc1cccc(CC)c1NC(=O)/C(Cl)=C(/Cl)C(=O)O', 'log10 of IC50', 2.58),
  ('Cc1ccc(NC(=O)/C(Cl)=C(/Cl)C(=O)O)cc1', 'log10 of IC50', 2.64);

# evaluate next
Input: Find the recorded log10 of IC50 belonging to CCCC(=O)OC1C2C(CC1(C)C)C(=O)C13OC1C(=O)C1(CO1)C23C (centres unmarked) and report it.
Output: 3.04

* * *

Measured TR/TRTrx, listed per entry for reference.
TARGET_OF_ASSAY: thioredoxin reductase/thioredoxin (Homo sapiens, UniProt Q16881)
EXPERIMENT_DESCRIPTION: thioredoxin reductase/thioredoxin-dependent insulin reduction assay
Type: biochemical
RUN_PARAMETERS: ratio of IC50 TR alone and IC50 TR/Trx assay
// return just the number, without any unit appended

INSERT INTO assay_data (molecule, assay_result) VALUES
  ('C=C(CN(C)C)C(=O)c1ccc(C)cc1C [NSC 382000]', 1.0);

Input: What reported TR/TRTrx corresponds to Cc1cc2c(c(O)c1-c1c(C)cc(O)c3c1C(=O)C=CC3=O)C(=O)C=CC2=O [NSC 208731] on thioredoxin reductase/thioredoxin (Homo sapiens, UniProt Q16881)?
Output: 1.0

Input: What reported TR/TRTrx corresponds to Cc1ccc(NC(=O)/C(Cl)=C(/Cl)C(=O)O)cc1 [NSC 622378] on thioredoxin reductase/thioredoxin (Homo sapiens, UniProt Q16881)?
Output: 0.8

Input: What reported TR/TRTrx corresponds to CCc1cccc(CC)c1NC(=O)/C(Cl)=C(/Cl)C(=O)O [NSC 618605] on thioredoxin reductase/thioredoxin (Homo sapiens, UniProt Q16881)?
Output: 0.8

Input: What reported TR/TRTrx corresponds to Cc1cccc2c1c1ccc3c(c1n2C)C(=O)C=CC3=O [NSC 645330] on thioredoxin reductase/thioredoxin (Homo sapiens, UniProt Q16881)?
Output: 26.5

* * *

TARGET_OF_ASSAY: thioredoxin reductase/thioredoxin (Homo sapiens)
EXPERIMENT_DESCRIPTION: thioredoxin reductase/thioredoxin-dependent insulin reduction assay
Format: biochemical
RUN_PARAMETERS: IC50 (μg/ml) in TR/Trx Assay
MEASUREMENT_TYPE: IC50 (nM)
Could you give me the number in nM? Just the number is fine.

Input: Find the recorded IC50 belonging to CC(C)(CN1C(=O)C(Cl)=C(Cl)C1=O)CN1C(=O)C(Cl)=C(Cl)C1=O and report it.
Output: 300

* * *

TARGET_OF_ASSAY: thioredoxin reductase/thioredoxin (Homo sapiens)
EXPERIMENT_DESCRIPTION: thioredoxin reductase/thioredoxin-dependent insulin reduction assay
Assay type: biochemical
RUN_PARAMETERS: Table I; 30 min preincubation; read-out: IC50 (μg/ml) in TR/Trx Assay (converted)
MEASUREMENT_TYPE: IC50 (nM)
Could you give me the number in nM? Just the number is fine.

Example molecules with recorded IC50:
INSERT INTO results (molecule, value_units, assay_result) VALUES
  ('Cc1ccc(NC(=O)/C(Cl)=C(/Cl)C(=O)O)cc1 [NSC 622378]', 'nM', 438),
  ('CCCC(=O)OC1C2C(CC1(C)C)C(=O)C13OC1C(=O)C1(CO1)C23C (stereo not drawn) [NSC 163027]', 'nM', 1090);

Input: Find the recorded IC50 belonging to C=C(CN(C)C)C(=O)c1ccc(C)cc1C [NSC 382000] and report it.
Output: 460

* * *

TARGET_OF_ASSAY: glutathione reductase (Homo sapiens, UniProt P00390)
Sequence (P00390 44-522): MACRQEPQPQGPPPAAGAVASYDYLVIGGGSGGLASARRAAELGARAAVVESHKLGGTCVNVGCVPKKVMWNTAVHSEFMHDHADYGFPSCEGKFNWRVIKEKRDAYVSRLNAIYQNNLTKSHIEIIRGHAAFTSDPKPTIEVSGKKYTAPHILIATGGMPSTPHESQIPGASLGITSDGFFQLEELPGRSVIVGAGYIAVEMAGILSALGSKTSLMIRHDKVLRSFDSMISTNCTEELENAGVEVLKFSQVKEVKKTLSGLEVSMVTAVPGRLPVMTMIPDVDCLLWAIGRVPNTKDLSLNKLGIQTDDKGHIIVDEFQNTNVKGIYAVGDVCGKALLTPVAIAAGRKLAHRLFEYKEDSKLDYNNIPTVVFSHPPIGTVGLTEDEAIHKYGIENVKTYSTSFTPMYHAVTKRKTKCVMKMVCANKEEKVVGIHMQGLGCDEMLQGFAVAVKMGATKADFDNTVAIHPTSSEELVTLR
EXPERIMENT_DESCRIPTION: glutathione reductase assay (DTNB reduction)
Type: biochemical
RUN_PARAMETERS: Table II; read-out: IC50GR (μg/ml) (converted)
Measured IC50, listed per entry for reference.
Could you give me the number in µM? Just the number is fine.

Example compounds with recorded IC50:
INSERT INTO results (compound, measurement_type, assay_result) VALUES
  ('CC1COC2C3=C(C(=O)C=CC3=O)C3OC(=O)C4CCC5CC1CCC52C43 (centres unmarked)', 'IC50', 40.7),
  ('CCc1cccc(CC)c1NC(=O)/C(Cl)=C(/Cl)C(=O)O', 'IC50', 108),
  ('Cc1ccc(NC(=O)/C(Cl)=C(/Cl)C(=O)O)cc1', 'IC50', 73),
  ('CCCC(=O)OC1C2C(CC1(C)C)C(=O)C13OC1C(=O)C1(CO1)C23C (centres unmarked)', 'IC50', 115),
  ('C=C(CN(C)C)C(=O)c1ccc(C)cc1C', 'IC50', 13.8),
  ('O=[N+]([O-])C(=C(Sc1ccccc1)Sc1ccccc1)C(Cl)=C(Cl)Cl', 'IC50', 76.4),
  ('Cc1cc2c(c(O)c1-c1c(C)cc(O)c3c1C(=O)C=CC3=O)C(=O)C=CC2=O', 'IC50', 13.4);

# evaluate next
Input: What reported IC50 corresponds to Cc1cccc2c1c1ccc3c(c1n2C)C(=O)C=CC3=O on glutathione reductase (Homo sapiens, UniProt P00390)?
Output: 182

* * *

TARGET_OF_ASSAY: thioredoxin reductase/thioredoxin (Homo sapiens)
EXPERIMENT_DESCRIPTION: thioredoxin reductase/thioredoxin-dependent insulin reduction assay
Type: biochemical
RUN_PARAMETERS: Table I; 30 min preincubation; read-out: IC50 (μg/ml) in TR/Trx Assay (converted)
MEASUREMENT_TYPE: IC50

INSERT INTO assay_data (compound, measurement_type, assay_result) VALUES
  ('Cc1cc2c(c(O)c1-c1c(C)cc(O)c3c1C(=O)C=CC3=O)C(=O)C=CC2=O [NSC 208731]', 'IC50', '267 nM'),
  ('CCc1cccc(CC)c1NC(=O)/C(Cl)=C(/Cl)C(=O)O [NSC 618605]', 'IC50', '380 nM'),
  ('O=[N+]([O-])C(=C(Sc1ccccc1)Sc1ccccc1)C(Cl)=C(Cl)Cl [NSC 665103]', 'IC50', '239 nM'),
  ('CC1COC2C3=C(C(=O)C=CC3=O)C3OC(=O)C4CCC5CC1CCC52C43 (centres unmarked) [NSC 401005]', 'IC50', '163 nM');

Input: Find the recorded IC50 belonging to Cc1cccc2c1c1ccc3c(c1n2C)C(=O)C=CC3=O [NSC 645330] and report it.
Output: 6900 nM

* * *

TARGET_OF_ASSAY: thioredoxin reductase/thioredoxin (Homo sapiens)
EXPERIMENT_DESCRIPTION: thioredoxin reductase/thioredoxin-dependent insulin reduction assay
Type: biochemical
RUN_PARAMETERS: Table III; read-out: in vitro IC50 TR/Trx (μg/ml) (converted)
MEASUREMENT_TYPE: IC50

Example molecules with recorded IC50:
INSERT INTO measurements (molecule, assay_result) VALUES
  ('Cc1cccc2c1c1ccc3c(c1n2C)C(=O)C=CC3=O', '≤ 18200 nM'),
  ('O=[N+]([O-])C(=C(Sc1ccccc1)Sc1ccccc1)C(Cl)=C(Cl)Cl', '≤ 239 nM'),
  ('C=C(CN(C)C)C(=O)c1ccc(C)cc1C', '≤ 460 nM'),
  ('c1ccc(CSSc2ncc[nH]2)cc1 [DLK-36, benzyl-2-imidazolyl disulfide]', '180000 nM');

Input: Find the recorded IC50 belonging to Cc1ccc(NC(=O)/C(Cl)=C(/Cl)C(=O)O)cc1 and report it.
Output: ≤ 1820 nM

Input: Find the recorded IC50 belonging to Cc1cc2c(c(O)c1-c1c(C)cc(O)c3c1C(=O)C=CC3=O)C(=O)C=CC2=O and report it.
Output: ≤ 267 nM

Input: Find the recorded IC50 belonging to CC1COC2C3=C(C(=O)C=CC3=O)C3OC(=O)C4CCC5CC1CCC52C43 (stereo not drawn) and report it.
Output: ≤ 271 nM

Input: Find the recorded IC50 belonging to CCc1cccc(CC)c1NC(=O)/C(Cl)=C(/Cl)C(=O)O and report it.
Output: ≤ 1580 nM

Input: Find the recorded IC50 belonging to CCCC(=O)OC1C2C(CC1(C)C)C(=O)C13OC1C(=O)C1(CO1)C23C (stereo not drawn) and report it.
Output: ≤ 1440 nM
